tgt: Pyruvate dehydrogenase kinase (Homo sapiens, UniProt Q15119+Q15120+Q16654+Q15118)
measurement description: Inhibition of pyruvate dehydrogenase kinase in human PC3 cells incubated for 90 mins by phospho(Ser293)E1alpha MSP ELISA method
Format: cell-based
experimental setup: pc-3
measured metric: IC50 (nM)

smiles_entry=Cc1cnc(Cl)nc1-c1ccc(N(Cc2cccc(CN3CCCCC3)c2)C(=O)c2ccc(O)cc2O)cc1 tgt="Pyruvate dehydrogenase kinase (Homo sapiens, UniProt Q15119+Q15120+Q16654+Q15118)" measured_metric=IC50 unit_of_measurement=nM numeric_value=1000
smiles_entry=Cc1cnc(Cl)nc1-c1ccc(N(Cc2ccc(CNC(=O)C3CCC3)cc2)C(=O)c2ccc(O)cc2O)cc1 tgt="Pyruvate dehydrogenase kinase (Homo sapiens, UniProt Q15119+Q15120+Q16654+Q15118)" measured_metric=IC50 unit_of_measurement=nM numeric_value=100
smiles_entry=Cc1cc(S(=O)(=O)NCc2cccs2)cnc1-c1ccc(N(Cc2cnsc2)C(=O)c2ccc(O)cc2O)cc1 tgt="Pyruvate dehydrogenase kinase (Homo sapiens, UniProt Q15119+Q15120+Q16654+Q15118)" measured_metric=IC50 unit_of_measurement=nM numeric_value=1000
smiles_entry=COc1cnc(Cl)nc1-c1ccc(N(Cc2cnsc2)C(=O)c2ccc(O)cc2O)cc1 tgt="Pyruvate dehydrogenase kinase (Homo sapiens, UniProt Q15119+Q15120+Q16654+Q15118)" measured_metric=IC50 unit_of_measurement=nM numeric_value=1000
smiles_entry=Cc1cc(S(=O)(=O)NCc2cccnc2)cnc1-c1ccc(N(Cc2ccccc2)C(=O)c2cc(Cl)c(O)cc2O)cc1 tgt="Pyruvate dehydrogenase kinase (Homo sapiens, UniProt Q15119+Q15120+Q16654+Q15118)" measured_metric=IC50 unit_of_measurement=nM numeric_value=1000
smiles_entry=Cc1cnc(Cl)nc1-c1ccc(N(Cc2ccc(CN3CCC(F)(F)C3)cc2)C(=O)c2ccc(O)cc2O)cc1 tgt="Pyruvate dehydrogenase kinase (Homo sapiens, UniProt Q15119+Q15120+Q16654+Q15118)" measured_metric=IC50 unit_of_measurement=nM numeric_value=100
smiles_entry=Cc1cnc(Cl)nc1-c1ccc(N(Cc2cccc(OCCN3CCOCC3)c2)C(=O)c2ccc(O)cc2O)cc1 tgt="Pyruvate dehydrogenase kinase (Homo sapiens, UniProt Q15119+Q15120+Q16654+Q15118)" measured_metric=IC50 unit_of_measurement=nM numeric_value=1000
smiles_entry=CCc1cnc(C)nc1-c1ccc(N(Cc2ccsc2)C(=O)c2ccc(O)cc2O)cc1 tgt="Pyruvate dehydrogenase kinase (Homo sapiens, UniProt Q15119+Q15120+Q16654+Q15118)" measured_metric=IC50 unit_of_measurement=nM numeric_value=1000
smiles_entry=Cc1cc2ccccc2nc1-c1ccc(N(Cc2ccc(OCCN3CCCC3)cc2)C(=O)c2ccc(O)cc2O)cc1 tgt="Pyruvate dehydrogenase kinase (Homo sapiens, UniProt Q15119+Q15120+Q16654+Q15118)" measured_metric=IC50 unit_of_measurement=nM numeric_value=1000

---

tgt: Pyruvate dehydrogenase kinase (Homo sapiens, UniProt Q15119+Q15120+Q16654+Q15118)
measurement description: Inhibition of pyruvate dehydrogenase kinase in human PC3 cells incubated for 90 mins by phospho(Ser293)E1alpha MSP ELISA method
Assay type: cell-based
experimental setup: pc-3
Parameter: IC50. Scope: all listed entries.
measured metric: IC50 (nM)

compound=COc1cnc(Cl)nc1-c1ccc(N(Cc2ccccc2)C(=O)c2cc(Cl)c(O)cc2O)cc1 numeric_value=100
compound=CCN(CC)CCOc1ccc(CN(C(=O)c2ccc(O)cc2O)c2ccc(-c3nc4ccccc4cc3C)cc2)cc1 numeric_value=1000
compound=COc1cnc(Cl)nc1-c1ccc(N(Cc2cccnc2)C(=O)c2ccc(O)cc2O)cc1 numeric_value=1000
compound=Cc1cnc(Cl)nc1-c1ccc(N(Cc2ccc(CNC(=O)[C@H](C)NC(=O)OCc3ccccc3)cc2)C(=O)c2ccc(O)cc2O)cc1 numeric_value=100
compound=Cc1cnc(Cl)nc1-c1ccc(N(Cc2cccc(OCCN(C)C)c2)C(=O)c2ccc(O)cc2O)cc1 numeric_value=1000
compound=Cc1cnc(Cl)nc1-c1ccc(N(Cc2cccnc2)C(=O)c2ccc(O)cc2O)cc1 numeric_value=1000
compound=Cc1cc(S(=O)(=O)NCc2ccccc2)cnc1-c1ccc(N(Cc2cccnc2)C(=O)c2ccc(O)cc2O)cc1 numeric_value=1000
compound="COC1CCN(Cc2ccc(CN(C(=O)c3ccc(O)cc3O)c3ccc(-c4nc(Cl)ncc4C)cc3)cc2)C1 (stereo not drawn)" numeric_value=100

---

tgt: [Pyruvate dehydrogenase (acetyl-transferring)] kinase isozyme 1, mitochondrial (Homo sapiens)
measured metric: IC50

smiles_entry=O=C(c1ccc(O)cc1O)N(Cc1cccnc1)c1ccc(-c2nc(C(F)(F)F)nc3ccccc23)cc1 measured_metric=IC50 result="0.1 µM"
smiles_entry=O=C(NCc1ccccc1)Nc1ccc(N(Cc2ccccc2)C(=O)c2ccc(O)cc2O)cc1 measured_metric=IC50 result="1 µM"
smiles_entry=CN(Cc1cccc2ccccc12)C(=O)c1ccc(N(Cc2ccsc2)C(=O)c2ccc(O)cc2O)cc1 measured_metric=IC50 result="1 µM"
smiles_entry=CC(=O)Nc1ccc(N(Cc2ccccc2)C(=O)c2ccc(O)cc2O)cc1 measured_metric=IC50 result="1 µM"
smiles_entry=O=C(c1ccc(O)cc1O)N(Cc1cccnc1)c1ccc(-c2cc3cncnc3[nH]2)cc1 measured_metric=IC50 result="1 µM"

---

tgt: [Pyruvate dehydrogenase (acetyl-transferring)] kinase isozyme 1, mitochondrial (Homo sapiens)
Parameter: IC50. Scope: all listed entries.
measured metric: IC50 (nM)

smiles_entry=O=C(c1ccc(O)cc1O)N(Cc1cccnc1)c1ccc(-c2ccncc2C(F)(F)F)cc1 numeric_value=100
smiles_entry=CC(=O)N1CCN(S(=O)(=O)c2cnc(-c3ccc(N(Cc4ccsc4)C(=O)c4ccc(O)cc4O)cc3)c(C)c2)CC1 numeric_value=10
smiles_entry=Cc1nc(C(F)(F)F)nc(-c2ccc(N(Cc3ccsc3)C(=O)c3ccc(O)cc3O)cc2)c1C numeric_value=100
smiles_entry=CN(C)C(=O)c1ccc(N(Cc2ccsc2)C(=O)c2ccc(O)cc2O)cc1 numeric_value=10
smiles_entry=O=C(c1ccc(O)cc1O)N(Cc1cccnc1)c1ccc(-c2nc3ccccc3nc2C(F)(F)F)cc1 numeric_value=100
smiles_entry=CNc1nccc(-c2ccc(N(Cc3cccnc3)C(=O)c3ccc(O)cc3O)cc2)n1 numeric_value=100
smiles_entry=O=C(c1ccc(O)cc1O)N(Cc1ccccc1)c1ccc(-c2cnc3ccccc3n2)cc1 numeric_value=10000
smiles_entry=Cc1cc(C(=O)N(Cc2ccsc2)c2ccc(C(=O)N(C)Cc3ccc4nccnc4c3)cc2)c(O)cc1O numeric_value=10
smiles_entry=COc1ccc(CNC(=O)c2ccc(N(Cc3ccccc3)C(=O)c3ccc(O)cc3O)cc2)cc1 numeric_value=1000

---

tgt: [Pyruvate dehydrogenase (acetyl-transferring)] kinase isozyme 1, mitochondrial (Homo sapiens, UniProt Q15118)
pIC50: −log10 of the molar value.
measured metric: pIC50

smiles_entry=O=C(c1ccc(O)cc1O)N(Cc1cccnc1)c1ccc(-c2nc3ccc(Cl)cc3cc2CO)cc1 measured_metric=pIC50 numeric_value=8.00
smiles_entry=COc1ccc2nc(-c3ccc(N(Cc4cccnc4)C(=O)c4ccc(O)cc4O)cc3)c(C)cc2c1 measured_metric=pIC50 numeric_value=7.00
smiles_entry=COc1cc2ncnc(-c3ccc(N(Cc4cccnc4)C(=O)c4ccc(O)cc4O)cc3)c2cc1OC measured_metric=pIC50 numeric_value=6.00
smiles_entry=CCc1cc2ccccc2nc1-c1ccc(N(Cc2ccsc2)C(=O)c2ccc(O)cc2O)cc1 measured_metric=pIC50 numeric_value=6.00
smiles_entry=Cc1ccc(Cl)cc1-c1ccc(N(Cc2ccccc2)C(=O)c2ccc(O)cc2O)cc1 measured_metric=pIC50 numeric_value=6.00
smiles_entry=O=C(c1ccc(O)cc1O)N(Cc1ccccc1)c1ccc(-c2ncnc3cccc(F)c23)cc1 measured_metric=pIC50 numeric_value=6.00
smiles_entry=Cc1cnc(Cl)nc1-c1ccc(N(Cc2ccccc2)C(=O)c2cc(C(F)(F)F)c(O)cc2O)cc1 measured_metric=pIC50 numeric_value=6.00
smiles_entry=O=C(c1ccc(O)cc1O)N(Cc1ccccc1)c1ccc(-c2ccc(-n3ccnc3)nn2)cc1 measured_metric=pIC50 numeric_value=7.00
smiles_entry=CCc1cnc(C)nc1-c1ccc(N(Cc2cccnc2)C(=O)c2ccc(O)cc2O)cc1 measured_metric=pIC50 numeric_value=8.00

---

Parameter: IC50. Scope: all listed entries.
tgt: [Pyruvate dehydrogenase (acetyl-transferring)] kinase isozyme 1, mitochondrial (Homo sapiens)
measured metric: IC50 (nM)

smiles_entry=COc1cc(-c2ccc(N(Cc3ccsc3)C(=O)c3ccc(O)cc3O)cc2)ncn1 numeric_value=10000
smiles_entry=COCCN(C)S(=O)(=O)c1cnc(-c2ccc(N(Cc3cccnc3)C(=O)c3ccc(O)cc3O)cc2)c(C)c1 numeric_value=10
smiles_entry=Cc1cc(S(=O)(=O)NCCN(C)C)cnc1-c1ccc(N(Cc2ccccc2)C(=O)c2ccc(O)cc2O)cc1 numeric_value=100
smiles_entry=Cc1cc(S(=O)(=O)NCc2cccnc2)cnc1-c1ccc(N(Cc2ccccc2)C(=O)c2cc(Cl)c(O)cc2O)cc1 numeric_value=100
smiles_entry=Cc1cc(S(=O)(=O)N2CCCCC2)cnc1-c1ccc(N(Cc2ccsc2)C(=O)c2ccc(O)cc2O)cc1 numeric_value=10
smiles_entry=N#Cc1cccc(-c2ccc(N(Cc3cccnc3)C(=O)c3ccc(O)cc3O)cc2)c1 numeric_value=1000
smiles_entry=NC(=O)c1nc(-c2ccc(N(Cc3cccnc3)C(=O)c3ccc(O)cc3O)cc2)c2ccccc2n1 numeric_value=100
smiles_entry=CN(Cc1ccc2ccccc2n1)C(=O)c1ccc(N(Cc2ccsc2)C(=O)c2ccc(O)cc2O)cc1 numeric_value=100
